- EXPERIMENTAL TARGET: T1, recombinant HCMV pentamer (strain VR1814) consisting of gH, gL, UL128, UL130 and UL131A (human cytomegalovirus (strain VR1814))
- T1 construct: also called recombinant pentamer; Native Antigen CMV-PENT-100
- ASSAY OVERVIEW: BLI (Octet RED); antibody captured on anti-mouse Fc (AMC) biosensor, recombinant pentamer 100 µg/mL in solution; 1:1 model
QUANTITY MEASURED: Kd

{"BINDER": "14E1 (antibody, V domains shown, also called 14E1 (ms)) VH: QVQLVQSGAEVKKPGASVKVSCKASGYTFTSYSISWVRQAPGQGLEWMGWINTYNGNTNYAQRVQARVTMTTDTSTSTAYMELRSLRSDDTAVYYCARDHGFFFDYWGQGNLVTVSS VL: DIQLTQSPSFLSASVGDRVTITCWASQGISSYLAWYQQKPGKAPKLLIYAASTLQSGVPSRFSGSGSGTEFTLTISSLQPEDFATYYCQQLNSYPYTFGQGTQLEIK", "QUANTITY MEASURED": "Kd", "RECORDED MEASUREMENT": "64.6 nM"}
{"BINDER": "13G1 (antibody, V domains shown, also called 13G1 (ms); anti-gH mAb 13G1) VH: QVTLKESGPVLVKPTETLTLTCTVSGFSLYNARMGVTWIRQPPGKALEWLAHIFSNDERSYTSSLKNRLTISKDTSKSQVVLTMTNMDPVDTATYYCARIDYSNYIGNWFDPWGQGTLVTVSS VL: DIQMTQSPSSLSASVGDRVTITCRASQSISNYLNWYQQKPGKAPKLLIYAASSLQGGVPSRFSGSGSGTDFTLTISSLQPEDFTTYYCQQSYSTPFTFGGGTKVEIK", "QUANTITY MEASURED": "Kd", "RECORDED MEASUREMENT": "5.05 nM"}
{"BINDER": "9A12 (antibody, V domains shown, also called 9A12 (ms); anti-gH mAb 9A12) VH: EVQLVESGGVLVQPGGSLRLSCAASGFTFSSHEMNWVRQAPGKGLEWISYISSTGSTIYDADSVKGRFTISRDNAKNSLYLQMNSLRAEDTAVYYCARSSGWYRNYSYGMDVWGQGTTVTVSS VL: DIQMAQSPSSLSASVGDRVTITCRASQGIYNYLAWFQQKPGKAPKSLIYAASSLQTGVPSKFSGSGSGTDFTLTISNLQPEDFATYYCQQYNSFPRTFGQGTKVEIK", "QUANTITY MEASURED": "Kd", "RECORDED MEASUREMENT": "3.47 nM"}
{"BINDER": "15G11 (antibody, V domains shown, also called 15G11 (ms); anti-gH mAb 15G11) VH: QVQLQESGPGLVKPSQTLSLTCTVSGGSISSGYYYWNWIRQHPGKGLECIGYIYYSGTTYYNPSLKSRLFISVDTSKNQFSLKLRSVTAADTAVYYCARGGLGAFDIWGQGTMVTVSS VL: EIVLTQSPGTLSLSPGERATLSCRASQSVSSSYLAWYQQKPGQAPRLLIYGASSRAPGIPDRFSGTGSGTDFTLTISRLEPEDFAVYYCQQYGISPLTFGGGTKVEIK", "QUANTITY MEASURED": "Kd", "RECORDED MEASUREMENT": "2.28 nM"}
